Cited source: patent US8530465B2

Give measured viability at 1 μM for each item. Keep answers brief.
experiment.description: MTT assay, PhTERT-SEAP (H1299)
Assay type: cell-based, human
conditions: human, H1299 cells carrying the PhTERT-SEAP reporter; Conc. 1 μM; PhTERT-SEAP (H1299); read-out: Relative MTT viability (%)
Give bare numbers, in %.

Guide cases for viability at 1 μM, answers given:
structure.as.smiles | assay.result
Cc1ccc(C(=O)Nc2c(NC(=O)CN3CCN(CCO)CC3)ccc3c2C(=O)c2ccccc2C3=O)cc1 | 71.5
O=C(CN1CCN(c2ccccc2)CC1)Nc1ccc2c(c1NC(=O)c1ccccc1)C(=O)c1ccccc1C2=O | 86.3
O=C(CN1CCN(c2ccccc2F)CC1)Nc1ccc2c(c1NC(=O)c1ccccc1)C(=O)c1ccccc1C2=O | 98.6

Turning now to a further record.
Name the recorded viability at 1 μM for O=C(CCl)Nc1ccc2c(c1NC(=O)CCCl)C(=O)c1ccccc1C2=O .
103
